Tested on: HEPG2
Test: Euclidean distance of Cell Painting phenotypic profile (signed KS, 77 features) to DMSO centroid (dimensionless distance); 5 or 10 uM (library dependent); higher = stronger phenotypic change vs DMSO (phenoactivity)
Conditions: 48 h
# maps each entry to its Euclidean distance
readoutName: Euclidean distance

compound="CNC(=O)c1c(C)oc2cc(Oc3ncnc4cc(OC)c(OC)cc34)ccc12 [Fruquintinib]" readoutname="Euclidean distance" recordednumber=0.855
compound="N=C(N)N/N=C/c1c(Cl)cccc1Cl [Guanabenz Acetate]" readoutname="Euclidean distance" recordednumber=0.842
compound="Oc1cc(O)c2c(c1)OC(c1ccc(O)c(O)c1)C(O)C2 (single isomer, unassigned; (+)) [(+)-Catechin]" readoutname="Euclidean distance" recordednumber=0.247
compound="CCOC(=O)C1=C(C)NC(C)=C(C(=O)OC)C1c1cccc([N+](=O)[O-])c1 (centres undefined) [Nitrendipine]" readoutname="Euclidean distance" recordednumber=0.709

The origin of these recorded values is the supplement of paper PMC10127200.
